Provenance of the data: ChEMBL document CHEMBL1201862

Tested on: K562
Protocol Summary: NCI tumour cell line growth inhibition, 48 h
Activity calls are given as the source filed them. No stated cut-off is given here; in the data, active = GI50 up to about 1.1 µM and inactive = higher.
In this exercise, the only acceptable responses are 1 (yes) (active), 0 (no) (inactive)

Take a look at these entries with their results.
• O=C(c1ccccc1)c1c(CNCc2ccccc2)n(C(=O)c2ccccc2)c2ccccc12 = 0 (no)
• CC12CCC([C@H](N3CCOCC3)/C1=N\OCCN1CCCC1)C2(C)C (some centres not stated) = 0 (no)
• N#CCOc1ccc(/C=C/C(=O)c2ccc(Cl)cc2)cc1 = 0 (no)
• CCOC(=O)c1c(C)n(-c2ccc(C)cc2)c(=O)c2ccccc2c(=O)c2c(=O)ccc(=O)c1=2 = 0 (no)
• N#CCCN(CCC#N)c1ccc(/C=C2\N=C(c3ccccc3)N(NC(=O)c3ccncc3)C2=O)cc1 = 0 (no)
• Cc1ccc(Nc2[nH]c(=O)[nH]c(=O)c2C)cc1Cl = 0 (no)
• C=C1[C@@H]2CCC(C)(C)[C@H]1CCC(=O)[C@@H]2C(=O)OC = 0 (no)
• O=C1Cc2cn[nH]c2-c2ccccc2N1 = 0 (no)

Record lookup: outcome of this test for CC(Cc1ccc(O)cc1)NCC(O)c1ccc(O)c(O)c1 (configuration not stated) ?
0 (no)

Record lookup: outcome of this test for NCC(NC(=O)OCc1ccccc1)C(=O)O (configuration not stated) ?
0 (no)
